The reported measurements were obtained from patent US12681018B2.

Listed compounds paired with reported Fold reduction in nonspecific labeling
# experimental target: Estrogen Receptor-HaloTag (ER-Halo) fusion (Rhodococcus rhodochrous, UniProt P0A3G2, A155T/A167V/A172T/A224E/C128F/C176G/D78G/E160K/E257K/H272N/K175M/K195N/L47V/L88M/N227D/P291S/S58T/T264A/Y273L/Y87F)
# Construct: expressed in transfected cells; host or cells: U2OS
# Sequence (P03372 whole entry, the tested form may be a part): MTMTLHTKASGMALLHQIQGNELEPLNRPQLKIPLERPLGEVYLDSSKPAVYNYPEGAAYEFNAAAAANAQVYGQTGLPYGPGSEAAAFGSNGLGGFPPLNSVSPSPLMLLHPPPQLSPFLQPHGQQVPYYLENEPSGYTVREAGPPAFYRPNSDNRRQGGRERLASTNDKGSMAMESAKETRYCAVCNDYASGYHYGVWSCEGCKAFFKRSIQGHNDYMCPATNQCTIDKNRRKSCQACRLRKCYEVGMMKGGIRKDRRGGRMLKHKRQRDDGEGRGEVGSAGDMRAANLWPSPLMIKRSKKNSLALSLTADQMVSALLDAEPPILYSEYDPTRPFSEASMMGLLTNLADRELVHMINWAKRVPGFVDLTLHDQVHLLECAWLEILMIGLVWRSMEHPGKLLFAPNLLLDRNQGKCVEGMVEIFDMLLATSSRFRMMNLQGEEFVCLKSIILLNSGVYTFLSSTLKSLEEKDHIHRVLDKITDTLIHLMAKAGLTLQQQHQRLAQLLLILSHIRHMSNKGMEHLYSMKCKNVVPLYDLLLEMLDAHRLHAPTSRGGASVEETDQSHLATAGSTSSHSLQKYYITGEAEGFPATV
# Sequence (P0A3G2 other isoform, or with tags, fused parts or gaps with the stated changes): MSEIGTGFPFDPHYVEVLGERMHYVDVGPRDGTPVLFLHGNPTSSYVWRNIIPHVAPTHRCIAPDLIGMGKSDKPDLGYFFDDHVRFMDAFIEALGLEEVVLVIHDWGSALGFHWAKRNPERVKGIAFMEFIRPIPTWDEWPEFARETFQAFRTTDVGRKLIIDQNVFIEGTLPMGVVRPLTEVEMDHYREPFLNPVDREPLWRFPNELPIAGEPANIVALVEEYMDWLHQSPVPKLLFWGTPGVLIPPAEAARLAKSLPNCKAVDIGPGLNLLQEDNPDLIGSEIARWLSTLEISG
# Assay type: cell-based
# protocol conditions: Table 4a; tracks in WT U2OS cells, ratio with PA-JF549 in the numerator; 100 nM, 1 hr

Below, each entry is followed by its recorded Fold reduction in nonspecific labeling result.
{"compound": "[N-]=[N+]=C1C(=O)c2ccc(C(=O)NCCOCCOCCCCCCCl)cc2C12c1ccc(N3CC(O)C3)cc1Oc1cc(N3CC(O)C3)ccc12", "measurement type": "Fold reduction in nonspecific labeling", "reported value": ">10"}
{"compound": "CN1CC2CC(C1)N2c1ccc2c(c1)Oc1cc(N3C4CC3CN(C)C4)ccc1C21C(=[N+]=[N-])C(=O)c2ccc(C(=O)NCCOCCOCCCCCCCl)cc21 (centres unmarked)", "measurement type": "Fold reduction in nonspecific labeling", "reported value": ">10"}
{"compound": "CN(C)C1CN(c2ccc3c(c2)Oc2cc(N4CC(N(C)C)C4)ccc2C32C(=[N+]=[N-])C(=O)c3ccc(C(=O)NCCOCCOCCCCCCCl)cc32)C1", "measurement type": "Fold reduction in nonspecific labeling", "reported value": "5-10"}
{"compound": "[N-]=[N+]=C1C(=O)c2ccc(C(=O)NCCOCCOCCCCCCCl)cc2C12c1ccc(N3C4COCC3C4)cc1Oc1cc(N3C4COCC3C4)ccc12 (centres unmarked)", "measurement type": "Fold reduction in nonspecific labeling", "reported value": "1-5"}
{"compound": "CN(C)C(=O)[C@@H]1CCN1c1ccc2c(c1)Oc1cc(N3CC[C@H]3C(=O)N(C)C)ccc1C21C(=[N+]=[N-])C(=O)c2ccc(C(=O)NCCOCCOCCCCCCCl)cc21", "measurement type": "Fold reduction in nonspecific labeling", "reported value": ">10"}

Fold reduction in nonspecific labeling in this record for CN(C)C(=O)[C@H]1CCN(c2ccc3c(c2)Oc2cc(N4CC[C@H](C(=O)N(C)C)C4)ccc2C32C(=[N+]=[N-])C(=O)c3ccc(C(=O)NCCOCCOCCCCCCCl)cc32)C1 : 5-10

Fold reduction in nonspecific labeling in this record for [N-]=[N+]=C1C(=O)c2ccc(C(=O)NCCOCCOCCCCCCCl)cc2C12c1ccc(N3CC(C(=O)N4CCOCC4)C3)cc1Oc1cc(N3CC(C(=O)N4CCOCC4)C3)ccc12 : >10

Fold reduction in nonspecific labeling in this record for CN(CCOCCOCCCCCCCl)C(=O)c1ccc2c(c1)C1(C(=[N+]=[N-])C2=O)c2ccc(N3CCC3)cc2Oc2cc(N3CCC3)ccc21 : 5-10

Fold reduction in nonspecific labeling in this record for CN1CCN(C(=O)C2CN(c3ccc4c(c3)Oc3cc(N5CC(C(=O)N6CCN(C)CC6)C5)ccc3C43C(=[N+]=[N-])C(=O)c4ccc(C(=O)NCCOCCOCCCCCCCl)cc43)C2)CC1 : 1-5

Fold reduction in nonspecific labeling in this record for COC(=O)[C@H]1CCN1c1ccc2c(c1)Oc1cc(N3CC[C@@H]3C(=O)OC)ccc1C21C(=[N+]=[N-])C(=O)c2ccc(C(=O)NCCOCCOCCCCCCCl)cc21 : 1-5

Fold reduction in nonspecific labeling in this record for [N-]=[N+]=C1C(=O)c2ccc(C(=O)NCCOCCOCCCCCCCl)cc2C12c1ccc(N3CC[C@@H]3CO)cc1Oc1cc(N3CC[C@@H]3CO)ccc12 : 5-10
